Test: Aqueous solubility of the compound at pH 7.4 by HPLC-MS/MS analysis
Format: physicochemical
Conditions: buffer
List of log10 solubility values.
Could you please treat all values as log10 of solubility in µM?

>  <molecule>
CC(=O)[C@H]1CC[C@H]2[C@@H]3CC[C@H]4C[C@](C)(O)CC[C@]4(C)[C@H]3CC[C@]12C [GANAXOLONE]

>  <log10 solubility>
-0.15

$$$$
>  <molecule>
C[C@@]1(O)CC[C@H]2[C@H](CC[C@@H]3[C@@H]2CC[C@]2(C)[C@@H](C(=O)Cn4nccn4)CC[C@@H]32)C1

>  <log10 solubility>
0.86

$$$$
>  <molecule>
CC(=O)[C@H]1CC[C@H]2[C@@H]3CC[C@H]4C[C@](C)(O)CC[C@@H]4[C@H]3CC[C@]12C

>  <log10 solubility>
0.00

$$$$

Asked: Given the molecule C[C@@]1(O)CC[C@H]2[C@H](CC[C@@H]3[C@@H]2CC[C@]2(C)[C@@H](C(=O)Cn4cc5ncccc5n4)CC[C@@H]32)C1 , what is its reported log10 solubility?
Given back: 1.09

Asked: Input C[C@@]1(O)CC[C@H]2[C@@H](CC[C@@H]3[C@@H]2CC[C@]2(C)[C@@H](C(=O)Cn4ncnn4)CC[C@@H]32)C1
Given back: -0.05

Asked: Input CC(=O)[C@H]1CC[C@H]2[C@@H]3CC[C@H]4C[C@H](O)CC[C@]4(C)[C@H]3CC[C@]12C [BREXANOLONE]
Given back: 0.52

Asked: Input C[C@@]1(O)CC[C@H]2[C@H](CC[C@@H]3[C@@H]2CC[C@]2(C)[C@@H](C(=O)Cn4cc5ccncc5n4)CC[C@@H]32)C1
Given back: 0.08

Asked: Input C[C@@]1(O)CC[C@H]2[C@H](CC[C@@H]3[C@@H]2CC[C@]2(C)[C@@H](C(=O)Cn4cc5c(n4)CCCC5)CC[C@@H]32)C1
Given back: -0.52

Asked: Input C[C@@]1(O)CC[C@H]2[C@H](CC[C@@H]3[C@@H]2CC[C@]2(C)[C@@H](C(=O)Cn4ncnn4)CC[C@@H]32)C1
Given back: 0.40

----------
List of pIC50 values.
Molecular target: GABA-A receptor; anion channel
Assay: Displacement of [3H]TBPS from GABAA receptor in Sprague-Dawley rat brain cortical membrane after 90 mins by liquid scintillation spectrometry
Quick note: pIC50 means taking -log10 of the concentration in moles per liter.

Examples with answers:
>  <smiles data>
C[C@@]1(O)CC[C@H]2[C@H](CC[C@@H]3[C@@H]2CC[C@]2(C)[C@@H](C(=O)Cn4ncc5c4CCCC5)CC[C@@H]32)C1

>  <recorded endpoint>
pIC50

>  <number>
7.30

$$$$
>  <smiles data>
C[C@@]1(O)CC[C@H]2[C@H](CC[C@@H]3[C@@H]2CC[C@]2(C)[C@@H](C(=O)Cn4cc5ncccc5n4)CC[C@@H]32)C1

>  <recorded endpoint>
pIC50

>  <number>
8.22

$$$$

Asked: Given the compound C[C@@]1(O)CC[C@H]2[C@H](CC[C@@H]3[C@@H]2CC[C@]2(C)[C@@H](C(=O)Cn4ncc5cccnc54)CC[C@@H]32)C1 , what is its reported pIC50?
Given back: 7.80

Asked: Input C[C@@]1(O)CC[C@H]2[C@H](CC[C@@H]3[C@@H]2CC[C@]2(C)[C@@H](C(=O)Cn4cc5ccncc5n4)CC[C@@H]32)C1
Given back: 7.80

Asked: Input C[C@@]1(O)CC[C@H]2[C@@H](CC[C@@H]3[C@@H]2CC[C@]2(C)[C@@H](C(=O)Cn4ccnn4)CC[C@@H]32)C1
Given back: 6.99

Asked: Input C[C@@]1(O)CC[C@H]2[C@H](CC[C@@H]3[C@@H]2CC[C@]2(C)[C@@H](C(=O)Cn4ncc5ncccc54)CC[C@@H]32)C1
Given back: 7.60

Asked: Input C[C@@]1(O)CC[C@H]2[C@@H](CC[C@@H]3[C@@H]2CC[C@]2(C)[C@@H](C(=O)Cn4cncn4)CC[C@@H]32)C1
Given back: 6.76

These entries and their values trace back to ChEMBL document CHEMBL3425450.
